# TARGET OF ASSAY: Adenosine receptor A1 (Homo sapiens) (UniProt P30542)
# Sequence (P30542 whole entry): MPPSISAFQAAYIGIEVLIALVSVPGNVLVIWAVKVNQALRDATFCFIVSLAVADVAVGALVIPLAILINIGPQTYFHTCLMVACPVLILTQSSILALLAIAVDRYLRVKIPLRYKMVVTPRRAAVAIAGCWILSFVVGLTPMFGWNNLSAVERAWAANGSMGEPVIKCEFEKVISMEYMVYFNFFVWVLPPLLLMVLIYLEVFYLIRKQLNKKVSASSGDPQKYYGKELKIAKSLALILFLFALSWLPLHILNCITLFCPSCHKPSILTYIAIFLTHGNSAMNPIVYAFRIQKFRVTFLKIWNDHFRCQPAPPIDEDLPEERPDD
# PROCEDURE SUMMARY: Displacement of [3H]DPCPX from human recombinant adenosine A1 receptor expressed in CHO-A1 cells at 1 uM after 60 mins
# Format: cell-based
In this section we review reported inhibition values for a set of compounds.

>  <CHEMICAL STRING>
CCCn1c(=O)[nH]c2cc(-c3ccc(OCc4nc(-c5ccc(Br)cc5)no4)cc3)[nH]c2c1=O

>  <inhibition [%]>
21

$$$$
>  <CHEMICAL STRING>
CCCn1c(=O)[nH]c(=O)c2[nH]c(-c3ccc(OCC(=O)Nc4ccc(F)cc4)cc3)cc21

>  <inhibition [%]>
2

$$$$
>  <CHEMICAL STRING>
COc1cc(OCc2nc(-c3ccc(Br)cc3)no2)ccc1-c1cc2c([nH]1)c(=O)n(C)c(=O)n2C

>  <inhibition [%]>
36

$$$$
>  <CHEMICAL STRING>
CCCn1c(=O)[nH]c(=O)c2[nH]c(-c3ccc(OCC(=O)Nc4ccc(Br)cc4)cc3)cc21

>  <inhibition [%]>
41

$$$$
>  <CHEMICAL STRING>
CCCn1c(=O)[nH]c(=O)c2[nH]c(-c3ccc(OCC(=O)N4CCc5ccccc5C4)cc3)cc21

>  <inhibition [%]>
9

$$$$
>  <CHEMICAL STRING>
CCCn1c(=O)c2c(cc(-c3ccc(OCC(=O)N4CCN(c5ccccc5)CC4)cc3)n2C)n(CCC)c1=O

>  <inhibition [%]>
22

$$$$
>  <CHEMICAL STRING>
CCCn1c(=O)c2c(cc(-c3ccc(OCC(=O)Nc4ccc(F)cc4)cc3)n2C)n(CCC)c1=O

>  <inhibition [%]>
9

$$$$
>  <CHEMICAL STRING>
CCCn1c(=O)[nH]c(=O)c2[nH]c(-c3ccc(OCC(=O)Nc4ccccc4)cc3)cc21

>  <inhibition [%]>
0.5

$$$$
>  <CHEMICAL STRING>
CCCn1c(=O)c2c(cc(-c3ccc(OCC(=O)N4CCc5ccccc5C4)cc3)n2C)n(CCC)c1=O

>  <inhibition [%]>
19

$$$$
>  <CHEMICAL STRING>
CCCn1c(=O)[nH]c(=O)c2[nH]c(-c3ccc(OCC(=O)N4CCN(c5ccccc5)CC4)cc3)cc21

>  <inhibition [%]>
23

$$$$
